target-desc: pooled human IgG
experimental-endpoint: Enzyme Activity Endpoint Assay: Fc

protein	recorded-result
PRT-8 (protein) MANQEIRYSEVTPYHVTSVWTKGVTPPTNFTQGEDVFHAPYIANQGWYDITKTFNGKDDLLCGAATAGNMLHWWFDQNKDQIERYLKEHPEKQKINFNGEQMFDVKEAIDTKNSQLDSKLFEYFKEKAFPYLSTKHLGVFPDHVLDMFINGYRLSLTNHGPTPVKEGSKDPRGGIFDAVFTRGDQSKLLTSRHDFKEKNLKEISDLIKQELTEGKALGLSHTYANVRINHVINLWGADFDSNGNLEAIYVTDSDSNASIGMKKYFVGVNSAGKVAISAKEIKDDNIGAQVLGLFTLSTGQDIWNQTN	127 ng/µL
PRT-17 (protein) MANQEIRYSEVTPYHITSVWTKGVTPPTNFTQGEDVFHAPYKANQGWYDITKTFNGKDDLLCGAATAGNMLHWWFDQNKEEIERYLKEHPEKQKINFNGEQMFDVKEAIDTKGSQTDSKLFNYFKDKAFPYLSTKHLGVFPDHVLDMFINGYRLSLTNHGPTPVKEQSKDPRGGIFDAVFTRGDQSKLLTSRHDFKEKNLKEISDLIKKELTEGKALGLSHTYANVRINHVINLWGADFDSEGNLEAIYVTDSDSNASIGMKKYFVGVNSAGKVAISAKEIKGDNIGAQVLGLFTLSTGQDIWEKTN	116 ng/µL

These measurements were taken from patent US20250027068.
